target.system: HEK 293 GPR73 (prokineticin 1 receptor) expressing cells (Homo sapiens)
Construct: expressed in transfected cells; host or cells: HEK 293
Sequence (Q8TCW9 whole entry): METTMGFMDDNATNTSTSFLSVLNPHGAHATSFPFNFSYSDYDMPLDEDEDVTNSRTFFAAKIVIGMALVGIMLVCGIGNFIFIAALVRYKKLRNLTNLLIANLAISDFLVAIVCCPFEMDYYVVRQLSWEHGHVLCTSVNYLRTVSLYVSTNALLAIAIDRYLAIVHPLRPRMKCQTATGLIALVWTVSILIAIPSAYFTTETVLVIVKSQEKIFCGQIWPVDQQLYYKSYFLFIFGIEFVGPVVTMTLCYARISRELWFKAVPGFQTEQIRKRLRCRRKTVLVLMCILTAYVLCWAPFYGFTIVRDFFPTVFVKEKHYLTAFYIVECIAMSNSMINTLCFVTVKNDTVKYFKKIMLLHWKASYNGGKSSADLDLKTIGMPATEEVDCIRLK
experiment.description: PK1 functional assay: screening for PK1 antagonists on the FLIPR (calcium fluorescence)
Format: cell-based
reported.conditions: compound at 10 μM, HEK 293 GPR73 cells, multiple values = repeat tests
measured.endpoint: Ca^2+ Mobilization % Inh @10 μM (%)

INSERT INTO results (molecule, target_system, unit, readout_number) VALUES
  ('N=C(N)NCCNc1nc(=O)n(Cc2ccc(Cl)cc2)c(=O)n1Cc1ccoc1', 'HEK 293 GPR73 (prokineticin 1 receptor) expressing cells (Homo sapiens)', '%', 71),
  ('COc1ccc(Cn2c(NCCNC(=N)NCCc3ccccn3)nc(=O)n(Cc3ccc(F)cc3)c2=O)cc1', 'HEK 293 GPR73 (prokineticin 1 receptor) expressing cells (Homo sapiens)', '%', 100),
  ('COc1ccc(Cn2c(NCCNC(=N)N)nc(=O)n(Cc3ccc(OC(C)(C)C)cc3)c2=O)cc1', 'HEK 293 GPR73 (prokineticin 1 receptor) expressing cells (Homo sapiens)', '%', 99),
  ('COc1ccc(Cn2c(NCCONC(=N)N)nc(=O)n(Cc3ccccc3)c2=O)cc1', 'HEK 293 GPR73 (prokineticin 1 receptor) expressing cells (Homo sapiens)', '%', 33),
  ('COc1ccc(Cn2c(NC3CCC(NC(=N)N)CC3)nc(=O)n(Cc3ccc(F)cc3)c2=O)cc1 (centres unmarked)', 'HEK 293 GPR73 (prokineticin 1 receptor) expressing cells (Homo sapiens)', '%', 32),
  ('COc1ccc(Cn2c(NCCNC(=N)NCCc3ccccc3)nc(=O)n(Cc3ccc(Cl)c(Cl)c3)c2=O)cc1', 'HEK 293 GPR73 (prokineticin 1 receptor) expressing cells (Homo sapiens)', '%', 88),
  ('COC(=O)c1ccc(Cn2c(NCCNC(=N)N)nc(=O)n(Cc3ccccc3)c2=O)cc1', 'HEK 293 GPR73 (prokineticin 1 receptor) expressing cells (Homo sapiens)', '%', 52),
  ('NC(N)=NCCNc1nc(=O)n(Cc2ccc(Cl)cc2)c(=O)n1Cc1ccccc1', 'HEK 293 GPR73 (prokineticin 1 receptor) expressing cells (Homo sapiens)', '%', 64),
  ('N=C(N)NCCNc1nc(=O)n(Cc2ccccc2)c(=O)n1Cc1ccc([N+](=O)[O-])cc1', 'HEK 293 GPR73 (prokineticin 1 receptor) expressing cells (Homo sapiens)', '%', 35);
